From: paper PMC6272684

Would you kindly list Inhibition percentage against C. neoformans ATCC 32264 for each of these compounds?
Tested on: C. neoformans ATCC 32264
assayProcedure: Antifungal broth microdilution (CLSI M27-A3), growth inhibition
Format: cell-based, Cryptococcus neoformans
conditionLabel: 125 μg∙mL^−1, 48 h

Form field Inhibition percentage against C. neoformans ATCC 32264, entry CC(C)c1cc2c(c(OC(=O)CCc3cn(Cc4ccccc4)nn3)c1OC(=O)CCc1cn(Cc3ccccc3)nn1)C13CCCC(C)(C)C1CC2OC3=O (stereo not drawn) [Compound 19] : 7.1 ± 2.0%

Lookup result for CC(C)c1cc2c3c(c1OC(=O)CCCc1cn(Cc4ccccc4)nn1)OC(=O)C31CCCC(C)(C)C1CC2 (stereo not drawn) [Compound 4] ; measured Inhibition percentage against C. neoformans ATCC 32264: 17.8 ± 1.4%

Lab book: Inhibition percentage against C. neoformans ATCC 32264 of CC(C)c1cc2c3c(c1OC(=O)CCc1cn(CSc4ccccc4)nn1)OC(=O)[C@@]31CCCC(C)(C)[C@@H]1CC2 [Compound 1] noted as 8.9 ± 0.7%

* * *

System: C. neoformans ATCC 32264
assayProcedure: Antifungal broth microdilution (CLSI M27-A3), growth inhibition
Assay type: cell-based, Cryptococcus neoformans
conditionLabel: 62.5 μg∙mL^−1, 48 h
Could you please report measured Inhibition percentage against C. neoformans ATCC 32264 for the items listed next?
All answers are understood in %, so give the number only.

// CC(C)c1cc2c3c(c1OC(=O)CCCc1cn(Cc4ccccc4)nn1)OC(=O)C31CCCC(C)(C)C1CC2 (stereo not drawn) : Inhibition percentage against C. neoformans ATCC 32264 value = 9.8

Consider CC(C)c1cc2c(c(OC(=O)CCc3cn(Cc4ccc(Br)cc4)nn3)c1OC(=O)CCc1cn(Cc3ccc(Br)cc3)nn1)C13CCCC(C)(C)C1CC2OC3=O (stereo not drawn) . Its measured Inhibition percentage against C. neoformans ATCC 32264 is 19.2

# Inhibition percentage against C. neoformans ATCC 32264 (molecule: CC(C)c1cc2c3c(c1OC(=O)CCCc1cn(Cc4ccc(Br)cc4)nn1)OC(=O)[C@@]31CCCC(C)(C)[C@@H]1CC2 ) is 12.7

Form field Inhibition percentage against C. neoformans ATCC 32264, entry COC(=O)C12CCCC(C)(C)C1CCc1cc(C(C)C)c(OC(=O)CCCc3cn(Cc4ccc(Br)cc4)nn3)c(OC(=O)CCCc3cn(Cc4ccc(Br)cc4)nn3)c12 (stereo not drawn) : 16.9

molecule CC(C)c1cc2c(c(OC(=O)CCCc3cn(Cc4ccccc4)nn3)c1OC(=O)CCCc1cn(Cc3ccccc3)nn1)C13CCCC(C)(C)C1CC2OC3=O (stereo not drawn) , Inhibition percentage against C. neoformans ATCC 32264 observed: 10.4

get_value(item= CC(C)c1cc2c3c(c1OC(=O)CCc1cn(Cc4ccc([N+](=O)[O-])cc4)nn1)OC(=O)C31CCCC(C)(C)C1CC2 (stereo not drawn) , readout=Inhibition percentage against C. neoformans ATCC 32264) returns 0.0

According to the records, this molecule COC(=O)C12CCCC(C)(C)C1CCc1cc(C(C)C)c(OC(=O)CCc3cn(Cc4ccc(Br)cc4)nn3)c(OC(=O)CCc3cn(Cc4ccc(Br)cc4)nn3)c12 (stereo not drawn) displays Inhibition percentage against C. neoformans ATCC 32264 of 16.3

Just so you know, measured Inhibition percentage against C. neoformans ATCC 32264 for CC(C)c1cc2c3c(c1OC(=O)CCCc1cn(Cc4ccc([N+](=O)[O-])cc4)nn1)OC(=O)C31CCCC(C)(C)C1CC2 (stereo not drawn) came out at 8.2

The value of Inhibition percentage against C. neoformans ATCC 32264 measured for the molecule COC(=O)C12CCCC(C)(C)C1CCc1cc(C(C)C)c(OC(=O)CCCc3cn(Cc4ccc([N+](=O)[O-])cc4)nn3)c(OC(=O)CCCc3cn(Cc4ccc([N+](=O)[O-])cc4)nn3)c12 (stereo not drawn) turned out to be 14.5

Looking up COC(=O)C12CCCC(C)(C)C1CCc1cc(C(C)C)c(OC(=O)CCCc3cn(Cc4ccccc4)nn3)c(OC(=O)CCCc3cn(Cc4ccccc4)nn3)c12 (stereo not drawn) , I found its Inhibition percentage against C. neoformans ATCC 32264 recorded as 17.3

Field Inhibition percentage against C. neoformans ATCC 32264 (entry CC(C)c1cc2c3c(c1OC(=O)CCc1cn(Cc4ccccc4)nn1)OC(=O)[C@@]31CCCC(C)(C)[C@@H]1CC2 ) reads 16.7

// CC(C)c1cc2c(c(OC(=O)CCc3cn(Cc4ccccc4)nn3)c1OC(=O)CCc1cn(Cc3ccccc3)nn1)C13CCCC(C)(C)C1CC2OC3=O (stereo not drawn) : Inhibition percentage against C. neoformans ATCC 32264 value = 3.3

So, CC(C)c1cc2c3c(c1OC(=O)CCc1cn(Cc4ccc(Br)cc4)nn1)OC(=O)[C@@]31CCCC(C)(C)[C@@H]1CC2 ? Its Inhibition percentage against C. neoformans ATCC 32264 was 12.0

# molecule COC(=O)C12CCCC(C)(C)C1CCc1cc(C(C)C)c(OC(=O)CCc3cn(CSc4ccccc4)nn3)c(OC(=O)CCc3cn(CSc4ccccc4)nn3)c12 (stereo not drawn) ; its Inhibition percentage against C. neoformans ATCC 32264 = 23.4

Noted for COC(=O)C12CCCC(C)(C)C1CCc1cc(C(C)C)c(OC(=O)CCCc3cn(CSc4ccccc4)nn3)c(OC(=O)CCCc3cn(CSc4ccccc4)nn3)c12 (stereo not drawn) : its Inhibition percentage against C. neoformans ATCC 32264 reads 19.1
